Recorded values, source ChEMBL document CHEMBL1201862.

- Test system: MOLT-4
- assay-procedure: NCI tumour cell line growth inhibition, 48 h
Activity calls are given as the source filed them. No stated cut-off is given here; in the data, active = GI50 up to about 1.1 µM and inactive = higher.
The reply should name one outcome from Y for active, N for inactive

Example results:
# compound, category-label
rows = [
    ("COc1ccc(N2C(=O)C3c4[nH]c5ccccc5c4C4CCC(C(C)C)CC4C3C2=O)cc1 (stereo unspecified)", "N"),
    ("O=c1cc[nH]c2c1ccc1ncccc12", "N"),
    ("Cc1c(-c2ccccc2)c(C#N)c2nnc(C(N)=O)c(N)n12", "N"),
    ("N#Cc1c(-c2ccccc2)[nH]c2ccc(Cl)cc2c1=O", "N"),
    ("COC(=O)NN=C1C(C)(C)C(=O)C1(C)C", "N"),
    ("CCOC(=O)C1C(=O)CC(O)(c2ccccc2)C(C(=O)OCC)C1c1ccc(OC)cc1 (stereo unspecified)", "N"),
]

How did this test come out for CC(=O)C(CN(C)C)C(c1ccccc1)c1c(O)c2ccccc2oc1=O (stereo unspecified) ?
N

How did this test come out for CN(C)CCCN1c2ccccc2C(C)(C)c2ccccc21 [DIMETACRINE] ?
N

How did this test come out for "O=c1oc2ccc3ccccc3c2cc1-c1nnc(Nc2ccccc2)s1" ?
Y

How did this test come out for "Cc1cc2[nH]c(Cl)c(/C=C3\C(=O)Nc4ccccc43)c2cc1O" ?
N

How did this test come out for C[C@]12CCC(=O)CC1CCCC2=O (stereo partly specified) ?
N

###

- Test system: SNB-75
- assay-procedure: NCI tumour cell line growth inhibition, 48 h
The source made the active and inactive calls. Cut-off read from the data, not from the text of the source: active = GI50 up to about 1.1 µM and inactive = higher. Where a SMILES comes first, the peptide text is derived from it. [ ]: non-standard residue; d: D form. Phe(4-Cl) = N[CH](Cc1ccc(Cl)cc1)C(=O)O
The reply should name one outcome from label 1 for active, label 0 for inactive

Example results:
# molecule, study-system, category-label
data = [
    ("C=C1CCC2CC1[C@@H](C(=O)c1c[nH]c3ccccc13)NC2(C)C (stereo partly drawn)", "SNB-75", "label 0"),
    ("CC(O)C(NC(=O)C(Cc1ccccc1)NC(=O)C(NC(=O)C(CCCCN)NC(=O)C(Cc1c[nH]c2ccccc12)NC(=O)C(Cc1ccc(O)cc1)NC(=O)C(Cc1ccc(Cl)cc1)NC(=O)C(N)Cc1ccccc1)C(C)O)C(N)=O (stereo not drawn) (H-F[Phe(4-Cl)]YWKTFT-NH2; configuration not given here)", "SNB-75", "label 0"),
]

How did this test come out for CCOC(=O)C1C(=O)CC(O)(c2ccccc2)C(C(=O)OCC)C1c1ccc(OC)cc1 (stereo not drawn) ?
label 1

###

- System: U-251
- assay-procedure: NCI tumour cell line growth inhibition, 48 h
Activity calls are given as the source filed them. Cut-off read from the data, not from the text of the source: active = GI50 up to about 1.1 µM and inactive = higher.
reported-endpoint: GI50

// known answers, use as guide
# molecule, study-system, reported-endpoint, experimental-value
records = [
    ("CC12CCc3ccccc3C1=NNC(=O)C2 (centres undefined)", "U-251", "GI50", "> 100 µM (inactive)"),
    ("O=C(N/N=C\\c1ccc2ccccc2c1)Nc1ccc([N+](=O)[O-])cc1", "U-251", "GI50", "29.3 µM (inactive)"),
]

Now consider the entry below.
Determine from records and report GI50 for CN(C)CC1CCC(=C2CCCC2)C1=O (centres undefined)
> 10 µM (inactive)

###

- System: HL-60
- assay-procedure: NCI tumour cell line growth inhibition, 48 h
The source made the active and inactive calls. Cut-off read from the data, not from the text of the source: active = GI50 up to about 1.1 µM and inactive = higher.
Collected GI50 values appear next to each entry.

# molecule, experimental-value
records = [
    ("CN(C)CC1CCC(=C2CCCC2)C1=O (centres undefined)", "3.51 µM (inactive)"),
    ("Cc1ccc(C)n1-c1ccccc1C1C=Cn2c(=O)oc3c(OC(C)C)c(OC(C)C)c(O)c1c32 (centres undefined)", "8.75 µM (inactive)"),
    ("CC1=C(c2cc(C(=O)Nc3cccc(C(F)(F)F)c3)nc(NC#N)n2)Sc2ccccc2N1", "> 100 µM (inactive)"),
]

Now consider the entry below.
Determine from records and report GI50 for CC(=O)OC1[C@H]2c3cc4c(cc3CN3CCC(C[C@@H]1OC(C)=O)C23)OCO4 (some centres undefined)
> 75 µM (inactive)
